- RUN_DESCRIPTION: Pharmacokinetics in rats after oral administration of F18
- Format: in vivo, Sprague-Dawley rats
- ASSAY_CONDITIONS: Sprague-Dawley; rat blood, oral F18 50 mg/kg, mean ± SD, n = 5; read-out: MRT0−∞
ASSAY_METRIC: MRT inf
Hi, when you answer, please include the unit after the number. Thanks!

Guide cases for MRT inf, answers given:
[[record]]
compound = "CCCc1cc(=O)oc2c3c(c4c(c12)OC(C)(C)C=C4)OC(CCl)CC3=O (stereo not shown) [Metabolite F18]"
assay_metric = "MRT inf"
result = "10 h"

[[record]]
compound = "CCCc1cc(=O)oc2c3c(c4c(c12)OC(C)(C)C=C4)O[C@H](CCl)C[C@@H]3O (relative stereo) [Metabolite M3-2, cis-12-hydroxy F18]"
assay_metric = "MRT inf"
result = "13.2 h"

[[record]]
compound = "CCCc1cc(=O)oc2c3c(c4c(c12)OC(C)(C)C=C4)OC(CO)CC3=O (stereo not shown) [Metabolite M1]"
assay_metric = "MRT inf"
result = "9.4 h"


Kindly consider the entry below.
# get_value(readout='MRT inf', item= CCCc1cc(=O)oc2c3c(c4c(c12)OC(C)(C)C=C4)O[C@H](CCl)C[C@H]3O (relative stereo) [Metabolite M3-1, trans-12-hydroxy F18] )
8.9 h
